selective drug sensitivity score by entry:
system: 697; test: selective drug sensitivity score (sDSS, relative to normal bone marrow) (sDSS (score)); higher = more potent and effective on the cell line relative to normal bone marrow cells; conditions: 72 h;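 further: ALL cell lines in 384-well plates, five doses spanning 10,000-fold, each plate scaled between vehicle and 100 µmol/L benzalkonium chloride controls, sDSS an adapted area-under-curve metric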
Give only the figure.

# compound, selective drug sensitivity score
measured = [
    ("COc1cc2nccc(Oc3ccc(NC(=O)C4(C(=O)Nc5ccc(F)cc5)CC4)cc3)c2cc1OC [Cabozantinib] (top concentration 1000 nM)", -1.42),
    ("Cn1cc(C2=C(c3cn(C4CCN(Cc5ccccn5)CC4)c4ccccc34)C(=O)NC2=O)c2ccccc21 [Enzastaurin] (top concentration 10000 nM)", 5.76),
    ("O=C1Cc2cc(C(=O)NC3C[C@H]4CC[C@@H](C3)N4S(=O)(=O)CC3CCN(CCCC(F)(F)F)CC3)c(Cl)cc2N1 (stereo partly specified) (top concentration 10000 nM)", 0),
    ("NC(=O)c1cccc2cn(-c3ccc(C4CCCNC4)cc3)nc12 (stereo unspecified) [Niraparib] (top concentration 10000 nM)", 12.9),
    ("CC#CC(=O)N1CC[C@@H](n2c(=O)n(-c3ccc(Oc4ccccc4)cc3)c3c(N)ncnc32)C1 [Tirabrutinib] (top concentration 1000 nM)", 0),
    ("CCOc1cc2ncc(C#N)c(Nc3ccc(OCc4ccccn4)c(Cl)c3)c2cc1NC(=O)/C=C/CN(C)C [Neratinib] (top concentration 1000 nM)", 6.28),
    ("CC[C@@H]1C(=O)N(C)c2cnc(Nc3ccc(C(=O)NC4CCN(C)CC4)cc3OC)nc2N1C1CCCC1 [BI-2536] (top concentration 1000 nM)", 17.4),
    ("C[C@H]1C[C@@H]2[C@H]([C@@H](O)C[C@@]3(C)[C@H]2CC[C@]3(O)C(=O)CO)[C@@]2(C)C=CC(=O)C=C12 [Methylprednisolone] (top concentration 10000 nM)", 22.3),
]

Data request: Can you share its selective drug sensitivity score? I mean this compound: Cc1ccc(=O)n(-c2ccccc2)c1 [Pirfenidone] (top concentration 10000 nM)
Data returned: 0

Data request: Now the same for CO[C@@H](C)Cn1c(=O)n(C)c2cnc3ccc(-c4cncc(C(C)(C)O)c4)cc3c21 (top concentration 2500 nM)
Data returned: 9.78

Data request: Next entry: Cc1c(N)nc([C@H](CC(N)=O)NC[C@H](N)C(N)=O)nc1C(=O)N[C@H](C(=O)N[C@H](C)[C@@H](O)[C@H](C)C(=O)N[C@H](C(=O)NCCc1nc(-c2nc(C(=O)NCCC[S+](C)C)cs2)cs1)[C@@H](C)O)[C@@H](O[C@@H]1O[C@@H](CO)[C@@H](O)[C@H](O)[C@@H]1O[C@H]1O[C@H](CO)[C@@H](O)[C@H](OC(N)=O)[C@@H]1O)c1c[nH]cn1 [Bleomycin] (top concentration 10000 nM)
Data returned: 4.74

====

tested on: 380; test: selective drug sensitivity score (sDSS, relative to normal bone marrow) (sDSS (score)); higher = more potent and effective on the cell line relative to normal bone marrow cells; details: 72 h
Entries and their measured selective drug sensitivity score follow.
Reply briefly: the number, and no unit.

Examples with their reported selective drug sensitivity score follow.
# compound, target, selective drug sensitivity score
measured = [
    ("Cc1cn(-c2cc(NC(=O)c3ccc(C)c(Nc4nccc(-c5cccnc5)n4)c3)cc(C(F)(F)F)c2)cn1 [Nilotinib] (top concentration 10000 nM)", 380, 6.1),
    ("C[C@@H]1CN(Cc2ccc(F)cc2)[C@@H](C)CN1C(=O)c1cc2c(C(=O)C(=O)N(C)C)cn(C)c2cc1Cl [Talmapimod] (top concentration 10000 nM)", 380, 0),
    ("C[C@@H]1CN(CC(=O)Nc2ccc3c(c2)Cc2cccc(-c4cc(=O)cc(N5CCOCC5)o4)c2S3)C[C@H](C)O1 (top concentration 25000 nM)", 380, -1.88),
    ("CN(C)C(=O)c1cc2cnc(Nc3ccc(N4CCNCC4)cn3)nc2n1C1CCCC1 [Ribociclib] (top concentration 10000 nM)", 380, -2.02),
    ("O=c1[nH]c(=O)n([C@H]2C[C@H](O)[C@@H](CO)O2)cc1F [Floxuridine] (top concentration 10000 nM)", 380, 37.9),
]

Lab note: next compound to report on.
Data request: Bench note: what selective drug sensitivity score did COc1cccc2c1c(O)c(C(=O)N(C)c1ccc(C(F)(F)F)cc1)c(=O)n2C [Tasquinimod] (top concentration 10000 nM) show?
Data returned: -0.42

Hello, the source for this data is the supplement of paper PMC8967900, in case you need it.
